System: α-D-glucosidase
Test: Glycosidase inhibition: α-D-glucosidase (Bacillus)
Format: biochemical, Bacillus stearothermophilus
Details: 1 mg/ml; pH 6.0, 20° C
Protocol: Inhibition of the N-linked glycan trimming enzymes alpha-Glucosidases I and II or alpha-Mannosidases I and II are thought to be related to the anti-viral activity of castanospermine (Compound 104) and 1-deoxynojirimycin (Compound 193). […] All enzymes were purchased from Sigma, as were the appropriate p-nitrophenyl substrates. Assays were carried out in microtitre plates. Enzymes were assayed in 0.1M citric acid/0.2M di-sodium hydrogen phosphate (McIlvaine) buffers at the optimum pH for the enzyme. […]
measurementLabel: % inhibition α-gluc (Bacillus) (%)
Number in %, nothing else.

# compound, valueUnits, resultNumber
records = [
    ("O[C@H]1[C@H](O)[C@@H](O)CN2CC[C@H](O)[C@H]12 [Compound 104, Castanospermine, reference compound]", "%", 0),
    ("CC[C@@H]1N[C@@H](CO)[C@H](O)[C@@H](O)[C@@H]1O [Compound 23]", "%", 0),
    ("OC[C@@H]1NC[C@H](O)[C@@H]1O [Compound 167]", "%", 35),
    ("OC[C@H]1NC[C@H](O)[C@@H](O)[C@@H]1O [Compound 193, 1-deoxynojirimycin, reference compound]", "%", 100),
    ("CC[C@@H](O)[C@H]1N[C@H](CO)[C@@H](O)[C@@H]1O [Compound 62]", "%", 65),
]

Field: next compound
Given CC(O)[C@H](O)[C@H]1N[C@H](CO)[C@@H](O)[C@@H]1O (stereo partly drawn) [Compound 63] , respond with its % inhibition α-gluc (Bacillus). 36
